Origin of measurements: the Human Domainome abundance scans (Beltran et al. 2025)

B1: Chromodomain-helicase-DNA-binding protein 5, residues 411 to 463; numbered along this chain, Q8TDI0 (parent)
chain: EEDDHMEFCRVCKDGGELLCCDACPSSYHLHCLNPPLPEIPNGEWLCPRCTCP

# Variants of: B1
# protocolDetails: abundance fitness (aPCA) (normalised: wild type 0, dead -1); higher = more abundant; growth selection in yeast, the domain comes from the species named
# recordedConditions: Homo sapiens
quantity: abundance fitness
Give a plain numeric answer without units written out.

Y28N :: -0.608
P25S :: 0.022
P36S :: -0.023
C24M :: -0.781
H31G :: 0.089
P38I :: -0.564
N34V :: -0.067
H31W :: -0.361
C24P :: -0.791
L30W :: -0.201

Task: // returns reported abundance fitness for input L33Q
Result: -0.484

Task: What does the record list as abundance fitness for R49H ?
Result: -0.223

Task: // returns reported abundance fitness for input E44V
Result: -0.105

Task: I would be grateful if you could share the reported abundance fitness for C52M .
Result: 0.021

Task: Name the recorded abundance fitness for C24G .
Result: -0.723

Task: # lookup: abundance fitness of C47I
Result: -0.009

Task: Need abundance fitness, item C24Y
Result: -0.606

Task: I have this variant here, Y28A , and I need its recorded abundance fitness.
Result: -0.466

Task: What value of abundance fitness has been reported for the following variant? C47D
Result: -0.678

Task: Which abundance fitness value belongs to L18Q ?
Result: -0.415

Task: // abundance fitness lookup, key: P48L
Result: -0.564

Task: For the variant shown here, Y28S , give the reported abundance fitness.
Result: -0.679

Task: Requested field: abundance fitness. Item: C32G
Result: -0.985

Task: Fill blank: measured abundance fitness of the variant H31F is ____.
Result: 0.516

Task: May I ask what abundance fitness has been recorded for E44L ?
Result: -0.186

Task: If you can, please state the reported abundance fitness value of A23H .
Result: 0.088

Task: Please give the measured abundance fitness for this variant: A23T
Result: 0.08

Task: Value lookup for abundance fitness; key = T51M
Result: -0.296

Task: Recorded abundance fitness for N34R , please?
Result: -0.039

Task: Param item = C21Q ; retrieve measured abundance fitness.
Result: -0.633

Task: Which value of abundance fitness has been reported for L19I in the records?
Result: 0.26

Task: Fill blank: measured abundance fitness of the variant R49L is ____.
Result: -0.094
